# System: platelets
# experimentNotes: Inhibition of platelet aggregation (ADP-induced, washed platelets with fibrinogen)
# Type: cell-based
# setupConditions: isolated human platelets, ADP 5×10^-6 M, fibrinogen 1.1×10^-6 M
Residues, ends and D or L forms follow the SMILES beside them.
parameter: IC50 (µM)

P: N=C(N)NCCC[C@H](N)C(=O)NCC(=O)N[C@@H](CC(=O)O)C(=O)N[C@@H](Cc1ccccc1)C(=O)O [RGDF, H-Arg-Gly-Asp-Phe-OH] (H-RGDF-OH)
Q: N=C(N)NCCC[C@H](N)C(=O)NCC(=O)N[C@@H](CC(=O)O)C(=O)N[C@@H](Cc1c[nH]c2ccccc12)C(=O)O [RGDW, H-Arg-Gly-Asp-Trp-OH] (H-RGDW-OH)
Enquiry: Of the two listed items, P and Q , which carries the larger IC50 figure? # reply format: chosen label
Return: P
